Assay: Stability of JAK3 covalent inhibitors in human whole blood
Type: in vitro ADME
Conditions: both sexes, 37° C., read-out: Human blood stability t1/2
MEASUREMENT LABEL: half-life at 1 μM

COMPOUND | OBSERVED RESULT
C=CC(=O)N1CC[C@@H](Nc2cnc3[nH]cc(C(=O)NC(C)(C)C)c3n2)C[C@H]1C (single isomer, unassigned) [Example 342] | > 6 h
C=CC(=O)N1CCC[C@@H](Nc2ncnc3[nH]cc(-c4ccc(C(=O)NC5CC5)c(Cl)c4)c23)C1 [Example 31] | > 6 h
C=CC(=O)N1C[C@@H](Nc2ncnc3[nH]ccc23)[C@@H]2CC[C@H]1C2 (racemic) [Example 116] | 4.68 h
C=CC(=O)N1CC[C@H](Nc2cnc3[nH]cc(C(=O)NC(C)(C)C)c3n2)C[C@@H]1C (racemic) [Example 340] | > 6 h
C=CC(=O)N1C[C@@H](O)C[C@@H](Nc2ncnc3[nH]cc(Cl)c23)C1 [Example 162] | > 6 h

###

Target: JAK3 enzyme (Homo sapiens (Human))
Sequence (P52333 whole entry, species assumed): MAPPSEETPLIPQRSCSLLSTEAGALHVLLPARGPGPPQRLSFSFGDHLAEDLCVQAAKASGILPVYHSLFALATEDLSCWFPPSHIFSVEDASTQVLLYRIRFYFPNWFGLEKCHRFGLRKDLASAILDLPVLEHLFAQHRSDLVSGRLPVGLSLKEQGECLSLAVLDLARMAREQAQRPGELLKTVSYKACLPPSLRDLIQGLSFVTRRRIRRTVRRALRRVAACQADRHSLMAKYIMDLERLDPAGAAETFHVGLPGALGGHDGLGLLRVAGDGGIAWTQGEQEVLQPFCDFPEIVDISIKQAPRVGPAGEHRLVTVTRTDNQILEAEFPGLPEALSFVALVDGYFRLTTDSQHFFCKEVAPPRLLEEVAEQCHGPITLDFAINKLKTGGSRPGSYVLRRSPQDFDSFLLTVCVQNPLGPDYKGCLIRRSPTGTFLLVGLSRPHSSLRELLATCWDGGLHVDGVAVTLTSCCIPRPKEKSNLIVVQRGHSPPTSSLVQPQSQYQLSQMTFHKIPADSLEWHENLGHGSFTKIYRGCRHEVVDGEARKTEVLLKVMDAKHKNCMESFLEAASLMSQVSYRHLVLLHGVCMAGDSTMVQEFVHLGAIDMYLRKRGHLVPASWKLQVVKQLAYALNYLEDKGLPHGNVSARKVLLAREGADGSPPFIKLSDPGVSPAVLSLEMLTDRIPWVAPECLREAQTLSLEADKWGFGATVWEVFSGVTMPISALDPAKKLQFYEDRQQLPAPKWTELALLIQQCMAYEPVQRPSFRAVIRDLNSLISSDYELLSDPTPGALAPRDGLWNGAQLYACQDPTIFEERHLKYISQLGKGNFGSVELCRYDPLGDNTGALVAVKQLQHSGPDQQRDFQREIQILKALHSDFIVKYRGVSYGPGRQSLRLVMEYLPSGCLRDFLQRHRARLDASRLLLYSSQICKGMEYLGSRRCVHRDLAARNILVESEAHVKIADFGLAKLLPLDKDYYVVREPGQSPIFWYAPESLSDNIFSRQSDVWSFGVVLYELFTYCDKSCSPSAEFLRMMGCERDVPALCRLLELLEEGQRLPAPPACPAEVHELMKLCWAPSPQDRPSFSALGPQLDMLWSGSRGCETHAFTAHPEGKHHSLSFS
Experiment: JAK Caliper Enzyme Assay at 4 μM or 1 mM ATP
Type: biochemical
Conditions: read-out: JAK3 (4 μM ATP) IC50; 4 μM ATP

MOLECULE SMILES | IC50
C=CC(=O)N1CCC(Nc2cnc3[nH]cc(C(=O)N[C@@H](C)C(=O)NCCC#N)c3n2)CC1 | 2.6 nM

###

// pIC50 lookup, one value per entry
Biological target: UniProtKB P52333
Assay: JAK Caliper Enzyme Assay at 4 μM or 1 mM ATP
Type: biochemical
Conditions: read-out: JAK3 (1 mM ATP) IC50; 1 mM ATP
Protocol: JAK Caliper Enzyme Assay at 4 μM or 1 mM ATP Test article was solubilized in dimethyl sulfoxide (DMSO) to a stock concentration of 30 mM. An 11-point half log dilution series was created in DMSO with a top concentration of 600 μM. […] The compound plates were diluted 1 to 60 resulting in a top final assay compound concentration of 10 μM and a 2% DMSO concentration. Test article and assay controls were added to a 384-well plate. […]
pIC50: −log10 of the molar value.

MOLECULE SMILES | STUDY SYSTEM | pIC50
C=CC(=O)N1CCN(c2cnc3[nH]cc(C(=O)NC(C)C)c3n2)C[C@H]1CC | UniProtKB P52333 | 6.66
C=CC(=O)N1CCC(Nc2cnc3[nH]cc(C(=O)N[C@@H](C)C(=O)NCCC#N)c3n2)CC1 | UniProtKB P52333 | 6.65
